Test system: Saccharomyces cerevisiae ABC16-Green Monster
ASSAY_CONTEXT: 18 h; 30 °C; YPD
Would you mind telling me the reported log10(IC50 growth inhibition) of each entry?
Log scale reminder: IC50 growth inhibition in µM, then log10 taken.

Enquiry: Specify log10(IC50 growth inhibition) for `Cc1ccc(CNc2ncnc3sccc23)cc1` , system Saccharomyces cerevisiae ABC16-Green Monster.
Return: 1.13

Enquiry: Answer briefly: log10(IC50 growth inhibition) recorded on Saccharomyces cerevisiae ABC16-Green Monster for `Cc1nc(NC(=O)c2csc(NC3CCCC3)n2)sc1C`
Return: 1.09

Enquiry: Provide measured log10(IC50 growth inhibition) on Saccharomyces cerevisiae ABC16-Green Monster for O=C1c2ccccc2C2=Nc3ccccc3SC(c3cccc(F)c3)C12 (centres undefined) please.
Return: 0.23

Enquiry: System Saccharomyces cerevisiae ABC16-Green Monster. Read-out log10(IC50 growth inhibition). Item `Cc1cc(C2CCCCC2)n(O)c(=O)c1` . Report value.
Return: 1.52

Enquiry: Lab note: Saccharomyces cerevisiae ABC16-Green Monster assay, enter log10(IC50 growth inhibition) for COc1cc(NC(C)CCCN)c2ncccc2c1 (centres undefined) here
Return: 2.03

Enquiry: Find log10(IC50 growth inhibition) for O=C1N(Cc2cc3ccccc3s2)CC2CN(Cc3ccccc3)CCN12 (centres undefined) on Saccharomyces cerevisiae ABC16-Green Monster and write it down.
Return: 1.48

Enquiry: Would you please give the reported log10(IC50 growth inhibition) of `CCS(=O)(=O)c1ncc(Cl)c(C(=O)Nc2cc(Cl)cc(Cl)c2)n1` with Saccharomyces cerevisiae ABC16-Green Monster?
Return: 0.82

Enquiry: Answer briefly: log10(IC50 growth inhibition) recorded on Saccharomyces cerevisiae ABC16-Green Monster for `CC1(C)C=Cc2cc(C(=N)NOC(=O)c3ccccc3)ccc2O1`
Return: 0.64

Enquiry: Give log10(IC50 growth inhibition) for `CN(C)CCCN1c2ccccc2CCc2ccc(Cl)cc21.Cl` tested on Saccharomyces cerevisiae ABC16-Green Monster.
Return: 1.26

Enquiry: Report log10(IC50 growth inhibition) on Saccharomyces cerevisiae ABC16-Green Monster for this entry: CC(c1ncncc1F)C(O)(Cn1cncn1)c1ccc(F)cc1F (centres undefined)
Return: -0.74

Enquiry: Report log10(IC50 growth inhibition) on Saccharomyces cerevisiae ABC16-Green Monster for this entry: `COc1ccc(-c2nnc3ccc(-c4cccc(C(C)C)c4)cn23)cc1OC`
Return: 1.72

Enquiry: Answer with log10(IC50 growth inhibition) of CNCCC(Oc1ccc(C(F)(F)F)cc1)c1ccccc1 (centres undefined) measured for Saccharomyces cerevisiae ABC16-Green Monster.
Return: 1.68

Enquiry: Under Saccharomyces cerevisiae ABC16-Green Monster: report log10(IC50 growth inhibition) of `Cc1ccc2c(Br)cc(Br)c(OC(=O)c3ccccc3)c2n1` .
Return: 0.35

Enquiry: Give log10(IC50 growth inhibition) for `c1csc(-c2cnc3sc(NCC4CCOCC4)nn23)c1` tested on Saccharomyces cerevisiae ABC16-Green Monster.
Return: 0.47

Enquiry: State recorded log10(IC50 growth inhibition) with Saccharomyces cerevisiae ABC16-Green Monster, entry CC(Oc1ccc(Cl)cc1Cl)c1nc(-c2ccc(NC(=O)c3cccs3)cc2)no1 (centres undefined) , no comment.
Return: 0.59

Enquiry: Using Saccharomyces cerevisiae ABC16-Green Monster as the test system, report measured log10(IC50 growth inhibition) of `CN1CCN(c2ccccc2NC(=O)c2cccc(Oc3ccccc3)c2)CC1` .
Return: 2.00

Enquiry: Give log10(IC50 growth inhibition) for this entry on Saccharomyces cerevisiae ABC16-Green Monster: `FC(F)(F)c1cccc(Nc2nc3ccccc3nc2Nc2cccc(C(F)(F)F)c2)c1`
Return: 0.20

Values compiled from the supplement of paper PMC8837787.
